For each entry below, report its pKi value.
Molecular target: 5-HT3 (Homo sapiens, UniProt P46098)
Sequence (P46098 24-478): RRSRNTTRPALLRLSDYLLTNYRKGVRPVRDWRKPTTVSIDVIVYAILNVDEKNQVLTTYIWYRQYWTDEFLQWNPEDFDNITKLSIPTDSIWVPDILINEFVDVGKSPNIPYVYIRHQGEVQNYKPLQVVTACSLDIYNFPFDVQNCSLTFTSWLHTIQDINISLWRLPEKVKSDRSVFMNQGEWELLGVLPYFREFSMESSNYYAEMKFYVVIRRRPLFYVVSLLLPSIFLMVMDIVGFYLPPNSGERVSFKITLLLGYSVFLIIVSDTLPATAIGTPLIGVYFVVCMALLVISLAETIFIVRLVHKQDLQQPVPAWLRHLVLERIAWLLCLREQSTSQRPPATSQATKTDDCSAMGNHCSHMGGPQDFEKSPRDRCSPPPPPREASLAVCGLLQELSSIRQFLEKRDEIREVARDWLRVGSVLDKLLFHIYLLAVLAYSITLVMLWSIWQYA
Assay: Compound affinity for the human 5-HT3 receptor (Assay B), SPA radioligand binding with [9-methyl-3H]BRL-43694
Design: purchased Perkin Elmer
Conditions: Assay B (method B unless otherwise annotated); read-out: 5-HT3 Ki
Structures can show the parent of a compound that is named as a salt.
Answers are plain numbers, as −log10 of the molar value.

Before answering, review these 3 worked examples.
>  <compound>
CCC(=O)N1C[C@H](C)N(c2nc3c(C(=O)NC4CC5CCCC(C4)N5C)cccc3o2)[C@@H](C)C1 (stereo partly shown) [Example 134, Hydrochloride]

>  <endpointResult>
8.77

$$$$
>  <compound>
CN1[C@@H]2CCC[C@H]1C[C@@H](NC(=O)c1cccc3oc(NCCN4CCOCC4)nc13)C2 [Example 33, Trihydrochloride]

>  <endpointResult>
6.77

$$$$
>  <compound>
C[C@H]1CNC[C@H](C)N1c1nc2c(C(=O)NC3CC4CCCC(C3)N4C)cccc2o1 (stereo partly shown) [Example 73, Hydrochloride]

>  <endpointResult>
8.66

$$$$

Quick one: give me pKi for each item below, same order please.
1. CN1[C@@H]2CCC[C@H]1C[C@@H](NC(=O)c1cc(F)cc3oc(N)nc13)C2 [Example 121, Hydrochloride]
2. CN1[C@@H]2CCC[C@H]1C[C@@H](NC(=O)c1cccc3oc(N)nc13)C2 [Example 35, Hydrochloride]
3. CC(C)[C@H]1CN(c2nc3c(C(=O)NC4CC5CCCC(C4)N5C)cccc3o2)CCN1 (stereo partly shown) [Example 78, Hydrochloride]
4. C[C@H]1CN(C(=O)C(C)(C)C)C[C@H](C)N1c1nc2c(C(=O)NC3CC4CCCC(C3)N4C)cccc2o1 (stereo partly shown) [Example 130, Hydrochloride]

*A*
8.05
8.04
7.59
8.55

* * *

target: 5-HT3 receptors (Mus musculus, UniProt P23979); construct: from tissue; host or cells: whole animal: male or female CD-1(Crl.) mice; assay: Bezold-Jarisch assay in vivo: inhibition of serotonin induced bradycardia; conditions: 3 mg/kg p.o., 5-HT (0.1 mg/kg IV)-induced bradycardia 60 min later, read-out: % Inhibition @ dose of test substance (p.o.)
Sequence (P23979 24-489): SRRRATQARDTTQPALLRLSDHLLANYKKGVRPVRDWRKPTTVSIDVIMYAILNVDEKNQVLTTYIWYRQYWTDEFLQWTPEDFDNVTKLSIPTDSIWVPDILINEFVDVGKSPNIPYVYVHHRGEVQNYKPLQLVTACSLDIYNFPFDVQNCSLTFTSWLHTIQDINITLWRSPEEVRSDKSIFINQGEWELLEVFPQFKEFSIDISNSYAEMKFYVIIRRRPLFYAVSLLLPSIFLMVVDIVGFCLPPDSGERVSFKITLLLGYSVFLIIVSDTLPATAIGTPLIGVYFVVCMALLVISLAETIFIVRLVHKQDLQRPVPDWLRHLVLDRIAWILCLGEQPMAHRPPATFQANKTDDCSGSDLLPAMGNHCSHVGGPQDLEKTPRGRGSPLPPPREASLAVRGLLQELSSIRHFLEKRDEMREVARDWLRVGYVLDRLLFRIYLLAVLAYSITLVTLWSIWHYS
Where a name gives a salt, the structure may show the parent alone.
assayMetric: inhibition at 3 mg/kg (%)
Numbers only, in %.

Before answering, review these 3 worked examples.
>  <molecule>
C[C@@H]1CNC[C@H](C)N1c1nc2c(C(=O)NC3CC4CCCC(C3)N4C)cccc2o1 (relative stereo) [Example 50, Hydrochloride]

>  <assayMetric>
inhibition at 3 mg/kg

>  <endpointResult>
80

$$$$
>  <molecule>
Nc1nc2c(C(=O)NC3CN4CCC3CC4)cc(F)cc2o1 (stereo not shown) [Example 116, Hydrochloride]

>  <assayMetric>
inhibition at 3 mg/kg

>  <endpointResult>
97

$$$$
>  <molecule>
Nc1nc2c(C(=O)NC3CN4CCC3CC4)cc(Cl)cc2o1 (stereo not shown) [Example 103, Hydrochloride]

>  <assayMetric>
inhibition at 3 mg/kg

>  <endpointResult>
97

$$$$

Alright, here's another molecule for you.
*Q* Look up inhibition at 3 mg/kg of Nc1nc2c(C(=O)NC3CN4CCC3CC4)cccc2o1 (stereo not shown) [Example 93, Hydrochloride] and report it.
*A* 85

* * *

molecular target: 5-HT3 (Homo sapiens, UniProt P46098); assay: Compound affinity for the human 5-HT3 receptor (Assay B), SPA radioligand binding with [9-methyl-3H]BRL-43694; design: purchased Perkin Elmer
Where a name gives a salt, the structure may show the parent alone.
For each entry below, report its log10 of Ki value.
Heads up: the numbers are on a log10 scale; they represent Ki in nM.

Quick one: give me log10 of Ki for each item below, same order please.
1. C[C@H]1CN(C)CCN1c1nc2c(C(=O)NC3CC4CCCC(C3)N4C)cccc2o1 (stereo partly shown) [Example 55, Hydrochloride]
2. Nc1nc2c(C(=O)NC3CN4CCC3CC4)cc(Cl)cc2o1 (stereo not shown) [Example 103, Hydrochloride]
3. Nc1nc2c(C(=O)NC3CN4CCC3CC4)cccc2o1 (stereo not shown) [Example 93, Hydrochloride]
4. CN1C[C@H]2C[C@H](NC(=O)c3cccc4oc(Nc5ccccc5)nc34)C[C@@H](C1)N2C [Example 52, Hydrochloride]
5. Nc1nc2c(C(=O)NC3CN4CCC3CC4)cc(F)cc2o1 (stereo not shown) [Example 116, Hydrochloride]
6. C[C@H]1COC[C@H](C)N1c1nc2c(C(=O)NC3CC4CCCC(C3)N4C)cccc2o1 (stereo partly shown) [Example 75, Hydrochloride]

*A*
1. 1.46
2. 0.71
3. 1.08
4. 1.44
5. 0.97
6. -0.23

*Q* Look up log10 of Ki of C[C@@H]1CNC[C@H](C)N1c1nc2c(C(=O)NC3CC4CCCC(C3)N4C)cccc2o1 (relative stereo) [Example 50, Hydrochloride] and report it.
*A* 1.13

* * *

biological target: 5-HT3 (Homo sapiens); assay: Compound affinity for the human 5-HT3 receptor (Assay B), SPA radioligand binding with [9-methyl-3H]BRL-43694; parameters: purchased Perkin Elmer; details: Assay B (method B unless otherwise annotated); read-out: 5-HT3 Ki
Structures can show the parent of a compound that is named as a salt.
For each entry below, report its pKi value.
Answers are plain numbers, as −log10 of the molar value.

Before answering, review these 2 worked examples.
>  <molecule>
CC(C)[C@H]1CNCCN1c1nc2c(C(=O)NC3CC4CCCC(C3)N4C)cccc2o1 (some centres unmarked) [Example 76, Hydrochloride]

>  <pKi>
8.01

$$$$
>  <molecule>
CC[C@H]1COCCN1c1nc2c(C(=O)NC3CC4CCCC(C3)N4C)cc(Cl)cc2o1 (some centres unmarked) [Example 62, Hydrochloride]

>  <pKi>
8.20

$$$$

Quick one: give me pKi for each item below, same order please.
1. CN1[C@@H]2CCC[C@H]1C[C@@H](NC(=O)c1cccc3oc(Nc4ccncc4)nc13)C2 [Example 27, Dihydrochloride]
2. CCN(CC)c1nc2c(C(=O)N[C@@H]3CN4CCC3CC4)cccc2o1 [Example 115, Hydrochloride]
3. O=C(NC1CN2CCC1CC2)c1cccc2oc(N3CCOCC3c3ccccc3)nc12 (centres unmarked) [Example 20, Hydrochloride]

*A*
1: 8.35; 2: 8.32; 3: 7.46

Quick one: give me pKi for each item below, same order please.
1. CCC[C@H]1COCCN1c1nc2c(C(=O)NC3CC4CCCC(C3)N4C)cccc2o1 (some centres unmarked) [Example 66, Hydrochloride]
2. COC1CCN(c2nc3c(C(=O)N[C@H]4C[C@H]5CCC[C@@H](C4)N5C)cccc3o2)CC1 [Example 89, Hydrochloride]
3. CC(C)COC(=O)N1C[C@H](C)N(c2nc3c(C(=O)NC4CC5CCCC(C4)N5C)cccc3o2)[C@@H](C)C1 (some centres unmarked) [Example 138, Hydrochloride]

*A*
1: 8.39; 2: 7.43; 3: 8.62

Quick one: give me pKi for each item below, same order please.
1. CN1[C@@H]2CCC[C@H]1C[C@@H](NC(=O)c1cccc3oc(N4CCNc5ccccc54)nc13)C2 [Example 29, Dihydrochloride]
2. CN(C)c1nc2c(C(=O)N[C@H]3C[C@H]4COC[C@@H](C3)N4C)cccc2o1 [Example 30, Hydrochloride]
3. C[C@H]1CN(Cc2ccccc2)C[C@H](C)N1c1nc2c(C(=O)NC3CC4CCCC(C3)N4C)cccc2o1 (some centres unmarked) [Example 148, Hydrochloride]
4. CN1[C@@H]2CCC[C@H]1C[C@@H](NC(=O)c1cccc3oc(NC4CCCCC4)nc13)C2 [Example 70, Hydrochloride]

*A*
8.44
7.10
8.80
7.72

Quick one: give me pKi for each item below, same order please.
1. C[C@H]1CNC[C@H](C)N1c1nc2c(C(=O)NC3CN4CCC3CC4)cccc2o1 (some centres unmarked) [Example 99, Hydrochloride]
2. C[C@@H]1CNC[C@@H](C)N1c1nc2c(C(=O)NC3CC4CCCC(C3)N4C)cccc2o1 (some centres unmarked) [Example 69, Hydrochloride]

*A*
1: 7.88; 2: 7.49
